Each item that follows carries a reported inhibition at 250 µM.
Target: PTEN (Homo sapiens, UniProt P60484)
Sequence (P60484 whole entry, species assumed): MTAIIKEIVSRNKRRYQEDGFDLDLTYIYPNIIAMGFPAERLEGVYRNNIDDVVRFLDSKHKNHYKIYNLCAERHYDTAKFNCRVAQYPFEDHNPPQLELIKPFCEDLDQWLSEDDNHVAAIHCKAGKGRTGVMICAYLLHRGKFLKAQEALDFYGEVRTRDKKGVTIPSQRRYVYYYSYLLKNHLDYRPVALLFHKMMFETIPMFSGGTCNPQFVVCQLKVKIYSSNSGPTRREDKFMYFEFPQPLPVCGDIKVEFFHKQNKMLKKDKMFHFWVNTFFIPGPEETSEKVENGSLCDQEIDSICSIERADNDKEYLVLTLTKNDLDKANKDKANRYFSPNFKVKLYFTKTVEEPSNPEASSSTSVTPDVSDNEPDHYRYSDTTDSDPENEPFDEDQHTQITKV
Experiment: PTEN Inhibition Assay: General Screening
Assay type: biochemical
Details: read-out: % Inhibition @ 250 uM
Note: unit % is implicit; provide only the numeric part.

{"structure_notation": "O=C(CNc1ccc2c(c1)C(=O)C(=O)c1ccccc1-2)OCc1ccccc1", "inhibition at 250 µM [%]": 93.9}
{"structure_notation": "COc1ccc(OCC(=O)Nc2ccc3c(c2)C(=O)C(=O)c2ccccc2-3)cc1", "inhibition at 250 µM [%]": 99.2}
{"structure_notation": "Cc1cc(C)cc(S(=O)(=O)Nc2ccc3c(c2)C(=O)C(=O)c2ccccc2-3)c1", "inhibition at 250 µM [%]": 95.3}
{"structure_notation": "O=C(CCCc1ccccc1)Nc1ccc2c(c1)C(=O)C(=O)c1ccccc1-2", "inhibition at 250 µM [%]": 97.9}
{"structure_notation": "CCOC(=O)C(=O)Nc1ccc2c(c1)C(=O)C(=O)c1ccccc1-2", "inhibition at 250 µM [%]": 99.8}

Query compound follows.
Request: Name the recorded inhibition at 250 µM for `O=C1C(=O)c2cc(NS(=O)(=O)c3cccs3)ccc2-c2ccccc21` .
Response: 93.6
